Can you tell me Fold change of survived neurons compared to neurons grown without growth factors for the items I'm about to list?
# System: dopamine neurons
# assay: Survival of TH-positive dopamine neurons in dissociated midbrain floor cultures
# Assay type: cell-based, mouse
# conditions.used: Table 4, exp2, 100 ng/ml; data of Table 3 divided by values of no factor
One number for each entry, in fold.

# batch size: 3; output Fold change of survived neurons compared to neurons grown without growth factors per entry
1. KYEKTLDLASVDLRKMRVAELKQILHSWGEECRACAEKTDYVNLIQELAPKYA (listed as Homo sapiens) [pep3]
2. VDLRKMRVAELKQILHSWGEECRACAEKTDYVNLIQELAPKYAATHPKTEL (listed as Homo sapiens) [pep5]
3. VDLRKMRVAELKQILHSWGEECRACAEKTDYVNLIQELAPKYA (listed as Homo sapiens) [pep6]

[reply]
1: 0.93; 2: 1.20; 3: 1.14

# batch size: 3; output Fold change of survived neurons compared to neurons grown without growth factors per entry
1. TLDLASVDLRKMRVAELKQILHSWGEECRACAEKTDYVNLIQELAPKYAATHPKTEL (listed as Homo sapiens) [pep2]
2. TLDLASVDLRKMRVAELKQILHSWGEECRACAEKTDYVNLIQELAPKYA (listed as Homo sapiens) [pep4]
3. KYEKTLDLASVDLRKMRVAELKQILHSWGEECRACAEKTDYVNLIQELAP (listed as Homo sapiens) [pep7]

[reply]
0.76
1.16
1.27

###

# Test system: ER stressed SCG neurons
# assay: Survival of tunicamycin-treated (ER stressed) SCG sympathetic neurons after microinjection
# Format: cell-based, mice
# conditions.used: Table 2, AVG; data of Table 1 divided by values of PBS
measured.property: Fold change of survived neurons compared to neurons injected with PBS

# batch size: 6; output Fold change of survived neurons compared to neurons injected with PBS per entry
1. KYEKTLDLASVDLRKMRVAELKQILHSWGEECRACAEKTDYVNLIQELAPKYA (listed as Homo sapiens) [pep3]
2. VDLRKMRVAELKQILHSWGEECRACAEKTDYVNLIQELAPKYA (listed as Homo sapiens) [pep6]
3. VDLRKMRVAELKQILHSWGEECRACAEKTDYVNLIQELAPKYAATHPKTEL (listed as Homo sapiens) [pep5]
4. KYEKTLDLASVDLRKMRVAELKQILHSWGEECRACAEKTDYVNLIQELAP (listed as Homo sapiens) [pep7]
5. TLDLASVDLRKMRVAELKQILHSWGEECRACAEKTDYVNLIQELAPKYA (listed as Homo sapiens) [pep4]
6. TLDLASVDLRKMRVAELKQILHSWGEECRACAEKTDYVNLIQELAPKYAATHPKTEL (listed as Homo sapiens) [pep2]

[reply]
1. 2.32 Fold to PBS
2. 2.14 Fold to PBS
3. 2.23 Fold to PBS
4. 2.19 Fold to PBS
5. 2.16 Fold to PBS
6. 2.11 Fold to PBS

###

# System: dopamine neurons
# assay: Survival of TH-positive dopamine neurons in dissociated midbrain floor cultures
# Type: cell-based, mouse
# conditions.used: Table 3B (FIG. 17), AVG, 100 ng/ml, 5 days
survived neurons as % compared to neurons grown in the presence of GDNF strictly under 90 % GDNF means condition met; at 90 % GDNF or over means condition not met.

The following sequences have reported results that may help.
biopolymer.sequence	label.value
TLDLASVDLRKMRVAELKQILHSWGEESRACAEKTDYVNLIQELAPKYA (C-CDNF peptide with single amino acid substitution) [pep9]	condition met
TLDLASVDLRKMRVAEPKQILHSWGEECRACAEKTDYVNLIQEPAPKYA (Mutated C-CDNF peptide) [pep14]	condition met
TLDLASVDLRKMRVAELKQILHSWGEECRARACAEKTDYVNLIQELAPKYA (Mutated C-CDNF peptide) [pep11]	condition met
RVAELKQILHSWGEECRACAEKTDYVNLIQELAPKYA (listed as Homo sapiens) [pep8]	condition met
TLDLASVDLRKMRVAELKQILHSWGEECRACAE (listed as Homo sapiens) [pep15]	condition not met

Please look at the following sequence next.
[ask] # check: survived neurons as % compared to neurons grown in the presence of GDNF < 90 % GDNF for TLDLASVDLRKMRVAELKQILHSWGEECRASAEKTDYVNLIQELAPKYA (C-CDNF peptide with single amino acid substitution) [pep10]
[reply] condition met
